Assay: Amorphous solubility by slow addition from organic stock, UV/scattering detection
Type: physicochemical
Conditions: 0.5% wt simulated intestinal fluid (SIF) in pH 6.5 PBS, fassgf or other biorelevant, kinetic from dmso stock; 0.5% SIF (pH 6.5)
reported-metric: solubility

Ask: # lookup: solubility of CC(C)(c1ccc(OCc2ccnc(NS(C)(=O)=O)n2)cc1)c1cc(Cl)c(OCCCl)c(C#N)c1 [amorphous form of Compound A]
Reply: > 25 µg/mL

Origin of the recorded values: patent US20240207264A1
